experiment: Plasma PK of ANEB-001 and THC, 30 mg or 10 mg oral Compound 1 with 21 mg THC (Example 4); format: in vivo, human; conditions: human, in vivo, 21 mg THC + 30 mg ANEB-001; 01H00M; read-out: THC in Plasma (concentration), Mean
VALUE TYPE: concentration at 1 h (ng/mL)

[[record]]
compound = "CCCCCc1cc(O)c2c(c1)OC(C)(C)[C@@H]1CCC(C)=C[C@@H]21 [THC, Δ9-tetrahydrocannabinol]"
observed = 7.45


* * *

experiment: Plasma PK of ANEB-001 and THC, 50 and 100 mg oral Compound 1 with THC (Example 2); format: in vivo, human; details: human, in vivo, 10 mg THC + Placebo; 24 hrs; read-out: THC Concentration in Plasma, Mean
VALUE TYPE: concentration at 24 h (ng/mL)

[[record]]
molecule = "CCCCCc1cc(O)c2c(c1)OC(C)(C)[C@@H]1CCC(C)=C[C@@H]21 [THC, Δ9-tetrahydrocannabinol]"
value_type = "concentration at 24 h"
unit_descriptor = "ng/mL"
observed = 0


* * *

assay: Plasma PK of ANEB-001 and THC, 30 mg or 10 mg oral Compound 1 with 21 mg THC (Example 4); type: in vivo, human; settings: human, in vivo, 21 mg THC + 30 mg ANEB-001; 24H00M; read-out: THC in Plasma (concentration), Mean
VALUE TYPE: concentration at 24 h (ng/mL)

[[record]]
molecule = "CCCCCc1cc(O)c2c(c1)OC(C)(C)[C@@H]1CCC(C)=C[C@@H]21 [THC, Δ9-tetrahydrocannabinol]"
value_type = "concentration at 24 h"
unit_descriptor = "ng/mL"
observed = 0.0551


* * *

test: Plasma PK of ANEB-001 and THC, 50 and 100 mg oral Compound 1 with THC (Example 2); assay type: in vivo, human; conditions: human, in vivo, 10 mg THC + Placebo; 1 hrs; read-out: THC Concentration in Plasma, Mean
VALUE TYPE: concentration at 1 h (ng/mL)

[[record]]
molecule = "CCCCCc1cc(O)c2c(c1)OC(C)(C)[C@@H]1CCC(C)=C[C@@H]21 [THC, Δ9-tetrahydrocannabinol]"
observed = 2.49


* * *

assay: Plasma PK of ANEB-001 and THC, 50 and 100 mg oral Compound 1 with THC (Example 2); format: in vivo, human; settings: human, in vivo, 10 mg THC + 100 mg ANEB-001; 3 hrs; read-out: THC Concentration in Plasma, Mean
VALUE TYPE: concentration at 3 h (ng/mL)

[[record]]
compound = "CCCCCc1cc(O)c2c(c1)OC(C)(C)[C@@H]1CCC(C)=C[C@@H]21 [THC, Δ9-tetrahydrocannabinol]"
value_type = "concentration at 3 h"
unit_descriptor = "ng/mL"
observed = 0.718


* * *

test: Plasma PK of ANEB-001 and THC, 50 and 100 mg oral Compound 1 with THC (Example 2); format: in vivo, human; settings: human, in vivo, 10 mg THC + Placebo; 5 hrs; read-out: THC Concentration in Plasma, Mean
VALUE TYPE: concentration at 5 h (ng/mL)

[[record]]
molecule = "CCCCCc1cc(O)c2c(c1)OC(C)(C)[C@@H]1CCC(C)=C[C@@H]21 [THC, Δ9-tetrahydrocannabinol]"
unit_descriptor = "ng/mL"
observed = 0.285


* * *

Assay: Plasma PK of ANEB-001 and THC, 50 and 100 mg oral Compound 1 with THC (Example 2)
Assay type: in vivo, human
Details: human, in vivo, 10 mg THC + 50 mg ANEB-001; read-out: THC plasma AUClast, Mean
Method: A phase 2 clinical study was conducted using the design outlined in FIG. 1. Briefly, 60 adult healthy volunteers ages 18-45 (20 per arm) were selected for a randomized, double blind placebo-controlled study. Volunteers were divided into three groups: (1) THC (Δ9-Tetrahydrocannabinol, 10.5 mg)+placebo; (2) THC (10.5 mg)+Compound 1 (50 mg); and (3) THC (10.5 mg)+Compound 1 (100 mg). […] Following the general methods of Example 1, pharmacodynamic properties were measured for Compound 1 (FIGS. 13A-13F).
VALUE TYPE: AUC(0-t) (ng·h/mL)

[[record]]
compound = "CCCCCc1cc(O)c2c(c1)OC(C)(C)[C@@H]1CCC(C)=C[C@@H]21 [THC, Δ9-tetrahydrocannabinol]"
unit_descriptor = "ng·h/mL"
observed = 5.98


* * *

experiment: Plasma PK of ANEB-001 and THC, 30 mg or 10 mg oral Compound 1 with 21 mg THC (Example 4); format: in vivo, human; details: human, in vivo, 21 mg, 21 mg THC + Placebo; 00H20M; read-out: THC in Plasma (concentration), Mean
VALUE TYPE: concentration at 20 min (ng/mL)

[[record]]
molecule = "CCCCCc1cc(O)c2c(c1)OC(C)(C)[C@@H]1CCC(C)=C[C@@H]21 [THC, Δ9-tetrahydrocannabinol]"
unit_descriptor = "ng/mL"
observed = 2.22


* * *

experiment: Plasma PK of ANEB-001 and THC, 50 and 100 mg oral Compound 1 with THC (Example 2); type: in vivo, human; conditions: human, in vivo, 10 mg THC + 50 mg ANEB-001; read-out: THC plasma tmax, Median
VALUE TYPE: Tmax (h)

[[record]]
compound = "CCCCCc1cc(O)c2c(c1)OC(C)(C)[C@@H]1CCC(C)=C[C@@H]21 [THC, Δ9-tetrahydrocannabinol]"
observed = 1


* * *

experiment: Plasma PK of ANEB-001 and THC, 50 and 100 mg oral Compound 1 with THC (Example 2); type: in vivo, human; details: human, in vivo, 10 mg THC + 100 mg ANEB-001; 2 hrs; read-out: THC Concentration in Plasma, Median
VALUE TYPE: concentration at 2 h

[[record]]
molecule = "CCCCCc1cc(O)c2c(c1)OC(C)(C)[C@@H]1CCC(C)=C[C@@H]21 [THC, Δ9-tetrahydrocannabinol]"
observed = "1.05 ng/mL"


* * *

assay: Plasma PK of ANEB-001 and THC, 50 and 100 mg oral Compound 1 with THC (Example 2); assay type: in vivo, human; settings: human, in vivo, 10 mg THC + Placebo; read-out: THC plasma AUClast, Geometric Mean
VALUE TYPE: AUC(0-t)

[[record]]
compound = "CCCCCc1cc(O)c2c(c1)OC(C)(C)[C@@H]1CCC(C)=C[C@@H]21 [THC, Δ9-tetrahydrocannabinol]"
observed = "5.16 ng·h/mL"


* * *

test: Plasma PK of ANEB-001 and THC, 30 mg or 10 mg oral Compound 1 with 21 mg THC (Example 4); format: in vivo, human; settings: human, in vivo, 21 mg, 21 mg THC + Placebo; 05H00M; read-out: THC in Plasma (concentration), Median
VALUE TYPE: concentration at 5 h

[[record]]
molecule = "CCCCCc1cc(O)c2c(c1)OC(C)(C)[C@@H]1CCC(C)=C[C@@H]21 [THC, Δ9-tetrahydrocannabinol]"
observed = "0.456 ng/mL"


* * *

assay: Plasma PK of ANEB-001 and THC, 30 mg or 10 mg oral Compound 1 with 21 mg THC (Example 4); type: in vivo, human; settings: human, in vivo, 21 mg THC + 30 mg ANEB-001; 00H40M; read-out: THC in Plasma (concentration), Mean
VALUE TYPE: concentration at 40 min (ng/mL)

[[record]]
compound = "CCCCCc1cc(O)c2c(c1)OC(C)(C)[C@@H]1CCC(C)=C[C@@H]21 [THC, Δ9-tetrahydrocannabinol]"
value_type = "concentration at 40 min"
unit_descriptor = "ng/mL"
observed = 8.94


* * *

assay: Plasma PK of ANEB-001 and THC, 30 mg or 10 mg oral Compound 1 with 21 mg THC (Example 4); format: in vivo, human; conditions: human, in vivo, 21 mg, 21 mg THC + Placebo; read-out: THC plasma AUC5H, GeoMean
VALUE TYPE: AUC(0-t)

[[record]]
compound = "CCCCCc1cc(O)c2c(c1)OC(C)(C)[C@@H]1CCC(C)=C[C@@H]21 [THC, Δ9-tetrahydrocannabinol]"
value_type = "AUC(0-t)"
observed = "12 ng·h/mL"


* * *

Test: Plasma PK of ANEB-001 and THC, 30 mg or 10 mg oral Compound 1 with 21 mg THC (Example 4)
Format: in vivo, human
Details: human, in vivo, 21 mg, 21 mg THC + Placebo; 04H00M; read-out: THC in Plasma (concentration), Median
Description: Following the general methods of Example 2, the study design was adjusted such that groups received either (a) THC (21 mg)+placebo or (b) THC (21 mg)+Compound 1 (30 mg) (FIG. 14) or either (a) THC (21 mg)+placebo or (b) THC (21 mg)+Compound 1 (10 mg) (FIG. 15). […] All PK parameter calculations were based on actual sampling time. […] AUC was calculated using the log-linear trapezoidal rule. […]
VALUE TYPE: concentration at 4 h (ng/mL)

[[record]]
compound = "CCCCCc1cc(O)c2c(c1)OC(C)(C)[C@@H]1CCC(C)=C[C@@H]21 [THC, Δ9-tetrahydrocannabinol]"
value_type = "concentration at 4 h"
observed = 0.894

